Assay: AUC (0 to infinity) in healthy human at 4 mg/kg, iv administered as 30 mins infusion every 24 hrs measured on day 7
Format: ADME, organism-based
Design: time infinity, dose 4 mg/kg, route intravenous
Details: plasma
TEST READOUT: AUC(0-inf) (µg·h/mL)

# LINE NOTATION, MEASUREMENT UNITS, NUMERIC RESULT
measured = [
    ("CCCCCCCCCC(=O)N[C@@H](Cc1c[nH]c2ccccc12)C(=O)N[C@H](CC(N)=O)C(=O)N[C@@H](CC(=O)O)C(=O)N[C@@H]1C(=O)NCC(=O)N[C@@H](CCCN)C(=O)N[C@@H](CC(=O)O)C(=O)N[C@H](C)C(=O)N[C@@H](CC(=O)O)C(=O)NCC(=O)N[C@H](CO)C(=O)N[C@@H]([C@H](C)CC(=O)O)C(=O)N[C@@H](CC(=O)c2ccccc2N)C(=O)O[C@@H]1C", "µg·h/mL", 494),
]

====

Assay: Half life in healthy human subjects at 10 mg/kg, iv administered as 30 mins infusion every 24 hrs measured on day 14
Format: ADME, organism-based
Parameters: dose 10 mg/kg, route intravenous
Conditions: in vivo

# LINE NOTATION, half-life, h
data = [
    ("CCCCCCCCCC(=O)N[C@@H](Cc1c[nH]c2ccccc12)C(=O)N[C@H](CC(N)=O)C(=O)N[C@@H](CC(=O)O)C(=O)N[C@@H]1C(=O)NCC(=O)N[C@@H](CCCN)C(=O)N[C@@H](CC(=O)O)C(=O)N[C@H](C)C(=O)N[C@@H](CC(=O)O)C(=O)NCC(=O)N[C@H](CO)C(=O)N[C@@H]([C@H](C)CC(=O)O)C(=O)N[C@@H](CC(=O)c2ccccc2N)C(=O)O[C@@H]1C", 7.9),
]

====

Assay: Clearance in healthy human subjects at 12 mg/kg, iv administered as 30 mins infusion every 24 hrs measured on day 1
Assay type: ADME, organism-based
Design: dose 12 mg/kg, route intravenous
Conditions: in vivo

# LINE NOTATION, MEASUREMENT UNITS, clearance
records = [
    ("CCCCCCCCCC(=O)N[C@@H](Cc1c[nH]c2ccccc12)C(=O)N[C@H](CC(N)=O)C(=O)N[C@@H](CC(=O)O)C(=O)N[C@@H]1C(=O)NCC(=O)N[C@@H](CCCN)C(=O)N[C@@H](CC(=O)O)C(=O)N[C@H](C)C(=O)N[C@@H](CC(=O)O)C(=O)NCC(=O)N[C@H](CO)C(=O)N[C@@H]([C@H](C)CC(=O)O)C(=O)N[C@@H](CC(=O)c2ccccc2N)C(=O)O[C@@H]1C", "mL/min/kg", 0.167),
]

====

Experiment: Clearance in healthy human subjects at 8 mg/kg, iv administered as 30 mins infusion every 24 hrs measured on day 4
Type: ADME, organism-based
Set-up: dose 8 mg/kg, route intravenous
Settings: in vivo

# LINE NOTATION, clearance (mL/min/kg)
rows = [
    ("CCCCCCCCCC(=O)N[C@@H](Cc1c[nH]c2ccccc12)C(=O)N[C@H](CC(N)=O)C(=O)N[C@@H](CC(=O)O)C(=O)N[C@@H]1C(=O)NCC(=O)N[C@@H](CCCN)C(=O)N[C@@H](CC(=O)O)C(=O)N[C@H](C)C(=O)N[C@@H](CC(=O)O)C(=O)NCC(=O)N[C@H](CO)C(=O)N[C@@H]([C@H](C)CC(=O)O)C(=O)N[C@@H](CC(=O)c2ccccc2N)C(=O)O[C@@H]1C", 0.15),
]

====

Assay: Cmax in young healthy human at 4 mg/kg, iv administered as single dose 30 mins infusion
Assay type: ADME, organism-based
Parameters: dose 4 mg/kg, route intravenous
Conditions: in vivo
TEST READOUT: Cmax (ng/mL)

# LINE NOTATION, NUMERIC RESULT
data = [
    ("CCCCCCCCCC(=O)N[C@@H](Cc1c[nH]c2ccccc12)C(=O)N[C@H](CC(N)=O)C(=O)N[C@@H](CC(=O)O)C(=O)N[C@@H]1C(=O)NCC(=O)N[C@@H](CCCN)C(=O)N[C@@H](CC(=O)O)C(=O)N[C@H](C)C(=O)N[C@@H](CC(=O)O)C(=O)NCC(=O)N[C@H](CO)C(=O)N[C@@H]([C@H](C)CC(=O)O)C(=O)N[C@@H](CC(=O)c2ccccc2N)C(=O)O[C@@H]1C", 42300),
]

====

Test: Clearance in healthy human at 4 mg/kg, iv administered as 30 mins infusion every 24 hrs measured on day 7
Assay type: ADME, organism-based
Set-up: dose 4 mg/kg, route intravenous
Conditions: in vivo
TEST READOUT: clearance (mL/min/kg)

# LINE NOTATION, NUMERIC RESULT
records = [
    ("CCCCCCCCCC(=O)N[C@@H](Cc1c[nH]c2ccccc12)C(=O)N[C@H](CC(N)=O)C(=O)N[C@@H](CC(=O)O)C(=O)N[C@@H]1C(=O)NCC(=O)N[C@@H](CCCN)C(=O)N[C@@H](CC(=O)O)C(=O)N[C@H](C)C(=O)N[C@@H](CC(=O)O)C(=O)NCC(=O)N[C@H](CO)C(=O)N[C@@H]([C@H](C)CC(=O)O)C(=O)N[C@@H](CC(=O)c2ccccc2N)C(=O)O[C@@H]1C", 0.138),
]

====

Assay: Half life in nonobese human at 4 mg/kg, iv administered as single dose 30 mins infusion
Type: ADME, organism-based
Design: dose 4 mg/kg, route intravenous
Details: in vivo

# LINE NOTATION, MEASUREMENT UNITS, half-life
rows = [
    ("CCCCCCCCCC(=O)N[C@@H](Cc1c[nH]c2ccccc12)C(=O)N[C@H](CC(N)=O)C(=O)N[C@@H](CC(=O)O)C(=O)N[C@@H]1C(=O)NCC(=O)N[C@@H](CCCN)C(=O)N[C@@H](CC(=O)O)C(=O)N[C@H](C)C(=O)N[C@@H](CC(=O)O)C(=O)NCC(=O)N[C@H](CO)C(=O)N[C@@H]([C@H](C)CC(=O)O)C(=O)N[C@@H](CC(=O)c2ccccc2N)C(=O)O[C@@H]1C", "h", 8.04),
]

====

Test: Unbound fraction in healthy human plasma at 6 mg/kg, iv administered as 30 mins infusion every 24 hrs measured on day 1
Format: ADME, organism-based
Design: dose 6 mg/kg, route intravenous

# LINE NOTATION, fraction unbound at 1 day
rows = [
    ("CCCCCCCCCC(=O)N[C@@H](Cc1c[nH]c2ccccc12)C(=O)N[C@H](CC(N)=O)C(=O)N[C@@H](CC(=O)O)C(=O)N[C@@H]1C(=O)NCC(=O)N[C@@H](CCCN)C(=O)N[C@@H](CC(=O)O)C(=O)N[C@H](C)C(=O)N[C@@H](CC(=O)O)C(=O)NCC(=O)N[C@H](CO)C(=O)N[C@@H]([C@H](C)CC(=O)O)C(=O)N[C@@H](CC(=O)c2ccccc2N)C(=O)O[C@@H]1C", 0.07),
]

====

Assay: AUC (0 to infinity) in healthy human subjects at 8 mg/kg, iv administered as 30 mins infusion every 24 hrs measured on day 4
Assay type: ADME, organism-based
Parameters: dose 8 mg/kg, route intravenous, time infinity
Conditions: plasma

# LINE NOTATION, AUC(0-inf) / µg·h/mL
records = [
    ("CCCCCCCCCC(=O)N[C@@H](Cc1c[nH]c2ccccc12)C(=O)N[C@H](CC(N)=O)C(=O)N[C@@H](CC(=O)O)C(=O)N[C@@H]1C(=O)NCC(=O)N[C@@H](CCCN)C(=O)N[C@@H](CC(=O)O)C(=O)N[C@H](C)C(=O)N[C@@H](CC(=O)O)C(=O)NCC(=O)N[C@H](CO)C(=O)N[C@@H]([C@H](C)CC(=O)O)C(=O)N[C@@H](CC(=O)c2ccccc2N)C(=O)O[C@@H]1C", 858),
]

====

Experiment: Plasma concentration in moderately obese adult human at 4 mg/kg, iv administered as single dose 30 mins infusion measured after 24 hrs
Format: ADME, organism-based
Parameters: dose 4 mg/kg, route intravenous
TEST READOUT: concentration at 24 h (ng/mL)

# LINE NOTATION, TEST READOUT, MEASUREMENT UNITS, NUMERIC RESULT
data = [
    ("CCCCCCCCCC(=O)N[C@@H](Cc1c[nH]c2ccccc12)C(=O)N[C@H](CC(N)=O)C(=O)N[C@@H](CC(=O)O)C(=O)N[C@@H]1C(=O)NCC(=O)N[C@@H](CCCN)C(=O)N[C@@H](CC(=O)O)C(=O)N[C@H](C)C(=O)N[C@@H](CC(=O)O)C(=O)NCC(=O)N[C@H](CO)C(=O)N[C@@H]([C@H](C)CC(=O)O)C(=O)N[C@@H](CC(=O)c2ccccc2N)C(=O)O[C@@H]1C", "concentration at 24 h", "ng/mL", 3440),
]
